Reported solubility values for a set of molecules
# assay_info: Aqueous solubility by HPLC analysis
# Format: physicochemical
# stated_conditions: buffer
Give just the numeric value; µg/mL need not be written.

COc1ccc2nc(NC(=O)C(CC3CCCC3)c3ccc(S(=O)(=O)N4CCN(C)CC4)cc3)sc2n1 (centres undefined): 50
COc1ccc2nc(NC(=O)C(CC3CCCC3)c3ccc(S(=O)(=O)NCc4ccncc4)cc3)sc2n1 (centres undefined): 10

Request the reported solubility associated with COc1ccc2nc(NC(=O)C(CC3CCCC3)c3ccc(S(=O)(=O)NCc4ccccn4)cc3)sc2n1 (centres undefined)
10

---

# assay_info: AUC (0 to 24 hrs) in C57BL/6 mouse liver at 60 mg/kg
# Assay type: ADME, organism-based, C57BL6
# Design: time < 24 hr, dose 60 mg/kg
value_type: AUC(0-t) at 24 h (µM·h)
Give just the numeric value; µM·h need not be written.

Request the reported AUC(0-t) at 24 h associated with COc1ccc2nc(NC(=O)[C@H](CC3CCCC3)c3ccc(S(=O)(=O)N4CCN(C)CC4)cc3)sc2n1
511

---

# assay_info: Intrinsic solubility in neutral pH by HPLC analysis
# Assay type: physicochemical
value_type: solubility

COc1ccc2nc(NC(=O)C(CC3CCCC3)c3ccc(S(=O)(=O)NCC(=O)O)cc3)sc2n1 (configuration not stated): > 570 µg/mL

// next entry
Request the reported solubility associated with COc1ccc2nc(NC(=O)C(CC3CCCC3)c3ccc(S(=O)(=O)NCCC(=O)O)cc3)sc2n1 (configuration not stated)
> 570 µg/mL

---

# measurement_target: Hexokinase-4 (Homo sapiens) (UniProt P35557)
# Sequence (P35557 whole entry): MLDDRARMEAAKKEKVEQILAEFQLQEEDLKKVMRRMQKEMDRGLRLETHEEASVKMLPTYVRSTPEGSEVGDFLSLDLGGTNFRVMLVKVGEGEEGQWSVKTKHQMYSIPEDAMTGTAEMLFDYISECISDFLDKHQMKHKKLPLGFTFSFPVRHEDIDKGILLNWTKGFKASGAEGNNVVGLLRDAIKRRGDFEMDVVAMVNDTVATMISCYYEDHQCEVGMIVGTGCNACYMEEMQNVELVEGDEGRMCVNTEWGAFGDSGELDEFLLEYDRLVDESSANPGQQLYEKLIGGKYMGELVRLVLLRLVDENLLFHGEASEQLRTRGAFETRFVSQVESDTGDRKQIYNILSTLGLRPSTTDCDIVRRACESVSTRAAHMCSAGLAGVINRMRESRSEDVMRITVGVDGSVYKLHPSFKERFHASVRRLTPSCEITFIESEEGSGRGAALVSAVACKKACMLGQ
# assay_info: Activation of His-tagged human recombinant liver glucokinase expressed in Escherichia coli BL21 (DE3) assessed as drug level required for half-maximal activation
# Type: single protein
value_type: Activity (nM)
Give just the numeric value; nM need not be written.

COc1ccc2nc(NC(=O)C(CC3CCCC3)c3ccc(S(=O)(=O)N(C)C)cc3)sc2n1 (configuration not stated): 295

Request the reported Activity associated with COc1ccc2nc(NC(=O)C(CC3CCCC3)c3ccc(S(=O)(=O)NC4CCCCC4)cc3)sc2n1 (configuration not stated)
302

Now give it for COc1ccc2nc(NC(=O)C(CC3CCCC3)c3ccc(S(=O)(=O)NCCC(=O)O)cc3)sc2n1 (configuration not stated) too.
2810

Now give it for COc1ccc2nc(NC(=O)C(CC3CCCC3)c3ccc(S(=O)(=O)N(C)Cc4ccccc4)cc3)sc2n1 (configuration not stated) too.
263

---

Reported Activity values for a set of compounds
# measurement_target: Hexokinase-4 (Homo sapiens) (UniProt P35557)
# assay_info: Activation of His-tagged human recombinant liver glucokinase expressed in Escherichia coli BL21 (DE3) assessed as drug level required for half-maximal activation
# Assay type: single protein

Solved cases below.
COc1ccc2nc(NC(=O)C(CC3CCCC3)c3ccc(S(=O)(=O)Nc4ccccc4)cc3)sc2n1 (stereo not drawn): 583 nM
COc1ccc2nc(NC(=O)C(CC3CCCC3)c3ccc(S(=O)(=O)NCc4cccs4)cc3)sc2n1 (stereo not drawn): 1450 nM

// next entry
Request the reported Activity associated with COc1ccc2nc(NC(=O)C(CC3CCCC3)c3ccc(S(N)(=O)=O)cc3)sc2n1 (stereo not drawn)
897 nM
